System: RCC4 and RCC4/VHL cells
Assay type: cell-based

- Molecule: "O=C(CCc1ccc(O)cc1)c1c(O)cc(O)cc1O"
  cytotoxicity to RCC4 and RCC4/VHL cells: "toxic to both"
- Molecule: "Clc1ccccc1C(c1ccccc1)(c1ccccc1)n1ccnc1"
  cytotoxicity to RCC4 and RCC4/VHL cells: "toxic to both"
- Molecule: "O=C(O)c1nn(Cc2ccc(Cl)cc2Cl)c2ccccc12"
  cytotoxicity to RCC4 and RCC4/VHL cells: "toxic to both"
